Molecular target: Albumin (Bos taurus)
Test: bovine serum albumin binders on microarray, profiling panel, artefact control for SMM control protein annotation, biochemical, small-molecule microarray, Alexa647 label, 635/667 nm fluorescence (AID 1118);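 also: score merges 667 nm emission intensity and signal-to-noise per printed compound spot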
Details: BSA-A647 binding, fluorescence 635 nm, higher = more signal
Quick reference for composite z-score among some compounds
Give the value as a plain number.

>>> recordedresult("COCCOC(=O)N1C(=O)[C@@]2(c3cc(C#CCC(C(=O)OC)C(=O)OC)ccc31)[C@H](C(=O)N1CCc3cc(OC)c(OC)cc3C1)[C@H]1C(=O)O[C@H](c3ccccc3)[C@H](c3ccccc3)N1[C@@H]2c1ccccc1OCCO")
0.329

Req: Quick one: composite z-score for O=C1OCC=C[C@H]2OC34C=CCN(Cn5nnc6ccccc65)C(=O)[C@H]3N(CCO)C(=O)[C@@H]4[C@@H]12 (some centres undefined) ?
Resp: -1.46

Req: Quick one: composite z-score for C=C(/C=C\CNS(=O)(=O)c1ccc(C)cc1)[C@H](O)[C@H]1CCCN1S(=O)(=O)c1ccccc1[N+](=O)[O-] ?
Resp: 0.678

Req: Quick one: composite z-score for C=CC[C@H](O)c1ccc(O)c2ccccc12 ?
Resp: -0.491

Req: Quick one: composite z-score for O=C1O[C@H](c2ccccc2)[C@H](c2ccccc2)N2[C@H]1[C@@H](C(=O)O)[C@]1(C(=O)Nc3ccccc31)[C@H]2c1ccc(OCCO)cc1 ?
Resp: 1.03

Req: Quick one: composite z-score for COc1ccc([Si](C)(C)[C@H]2[C@H](CC(=O)N(CCO)Cc3ccccc3)O[C@@]3(C(=O)N(c4ccccc4)c4ccccc43)[C@@H]2C)cc1 ?
Resp: 0.504
